system: Caco-2 cell monolayer; test: Caco-2 monolayer transport (bioavailability) study, AB and BA directions; type: in vitro ADME, Homo sapiens; conditions: BA experiment, acceptor side, S1 (15 mg/mL GSE), 90 min
Marks after values point to notes of the source that are not given here.
Observation type: Apical Side 90 min

# Apical Side 90 min (compound: O=c1c(O[C@@H]2O[C@H](CO)[C@@H](O)[C@H](O)[C@H]2O)c(-c2ccc(O)c(O)c2)oc2cc(O)cc(O)c12 [Q3G, quercetin-3-glucoside] ) is 0.010 ± 0.001 ^b,c mg/L

# Apical Side 90 min (compound: O=C(/C=C/c1ccc(O)c(O)c1)O[C@@H](C(=O)O)[C@@H](O)C(=O)O ) is 0.09 ± 0.01 ^c mg/L

List the reported Apical Side 90 min of each compound below.
1. O=c1c(O[C@@H]2O[C@H](CO)[C@@H](O)[C@H](O)[C@H]2O)c(-c2ccc(O)cc2)oc2cc(O)cc(O)c12 [K3G, kaempferol-3-glucoside]
2. O=C(O)c1cc(O)c(O)c(O)c1

1. 7.4 ± 0.3 ^c mg/L
2. 9.4 ± 0.2 ^b,c mg/L

# Apical Side 90 min (compound: COc1cc(-c2[o+]c3cc(O)cc(O)c3cc2O[C@@H]2O[C@H](CO)[C@@H](O)[C@H](O)[C@H]2O)cc(OC)c1O [M3G, malvidin-3-O-glucoside] ) is 0.23 ± 0.02 ^b,c mg/L

----------
Kindly state Basolateral Side 75 min for each of the entries shown.
tested on: Caco-2 cell monolayer; assay: Caco-2 monolayer transport (bioavailability) study, AB and BA directions; assay type: in vitro ADME, Homo sapiens; details: BA experiment, donor side, S1 (15 mg/mL GSE), 75 min
Marks after values point to notes of the source that are not given here.

# Basolateral Side 75 min (molecule: O=C(/C=C/c1ccc(O)c(O)c1)O[C@@H](C(=O)O)[C@@H](O)C(=O)O ) is 0.91 ± 0.02 ^b mg/L

# Basolateral Side 75 min (molecule: COc1cc(C(=O)O)cc(OC)c1O ) is 0.72 ± 0.07 ^a,b mg/L

# Basolateral Side 75 min (molecule: O=c1c(O[C@@H]2O[C@H](CO)[C@@H](O)[C@H](O)[C@H]2O)c(-c2ccc(O)cc2)oc2cc(O)cc(O)c12 [K3G, kaempferol-3-glucoside] ) is 7.2 ± 0.2 ^b mg/L

# Basolateral Side 75 min (molecule: COc1cc(-c2[o+]c3cc(O)cc(O)c3cc2O[C@@H]2O[C@H](CO)[C@@H](O)[C@H](O)[C@H]2O)cc(O)c1O [Pet3G, petunidin-3-O-glucoside] ) is 4.0 ± 0.1 ^b mg/L

# Basolateral Side 75 min (molecule: O=c1c(O[C@@H]2O[C@H](CO)[C@@H](O)[C@H](O)[C@H]2O)c(-c2ccc(O)c(O)c2)oc2cc(O)cc(O)c12 [Q3G, quercetin-3-glucoside] ) is 0.24 ± 0.02 ^b mg/L

# Basolateral Side 75 min (molecule: COc1cc(-c2[o+]c3cc(O)cc(O)c3cc2O[C@@H]2O[C@H](CO)[C@@H](O)[C@H](O)[C@H]2O)cc(OC)c1O [M3G, malvidin-3-O-glucoside] ) is 9.7 ± 0.6 ^b mg/L

List the reported Basolateral Side 75 min of each molecule below.
1. OC[C@H]1O[C@@H](Oc2cc3c(O)cc(O)cc3[o+]c2-c2cc(O)c(O)c(O)c2)[C@H](O)[C@@H](O)[C@@H]1O [D3G, delphinidin-3-O-glucoside]
2. O=c1c(OC2O[C@H](CO)[C@H](O)[C@H](O)[C@H]2O)c(-c2ccc(O)cc2)oc2cc(O)cc(O)c12 (stereo partly drawn) [K3Gal, kaempferol-3-galactoside]
3. O=C(O)c1cc(O)c(O)c(O)c1

["2.6 ± 0.2 ^a,b mg/L", "0.19 ± 0.01 ^b mg/L", "6.5 ± 0.3 ^b mg/L"]
